TESTED_TARGET: human α1H T-type channels (Homo sapiens, UniProt O95180)
Sequence (O95180 whole entry): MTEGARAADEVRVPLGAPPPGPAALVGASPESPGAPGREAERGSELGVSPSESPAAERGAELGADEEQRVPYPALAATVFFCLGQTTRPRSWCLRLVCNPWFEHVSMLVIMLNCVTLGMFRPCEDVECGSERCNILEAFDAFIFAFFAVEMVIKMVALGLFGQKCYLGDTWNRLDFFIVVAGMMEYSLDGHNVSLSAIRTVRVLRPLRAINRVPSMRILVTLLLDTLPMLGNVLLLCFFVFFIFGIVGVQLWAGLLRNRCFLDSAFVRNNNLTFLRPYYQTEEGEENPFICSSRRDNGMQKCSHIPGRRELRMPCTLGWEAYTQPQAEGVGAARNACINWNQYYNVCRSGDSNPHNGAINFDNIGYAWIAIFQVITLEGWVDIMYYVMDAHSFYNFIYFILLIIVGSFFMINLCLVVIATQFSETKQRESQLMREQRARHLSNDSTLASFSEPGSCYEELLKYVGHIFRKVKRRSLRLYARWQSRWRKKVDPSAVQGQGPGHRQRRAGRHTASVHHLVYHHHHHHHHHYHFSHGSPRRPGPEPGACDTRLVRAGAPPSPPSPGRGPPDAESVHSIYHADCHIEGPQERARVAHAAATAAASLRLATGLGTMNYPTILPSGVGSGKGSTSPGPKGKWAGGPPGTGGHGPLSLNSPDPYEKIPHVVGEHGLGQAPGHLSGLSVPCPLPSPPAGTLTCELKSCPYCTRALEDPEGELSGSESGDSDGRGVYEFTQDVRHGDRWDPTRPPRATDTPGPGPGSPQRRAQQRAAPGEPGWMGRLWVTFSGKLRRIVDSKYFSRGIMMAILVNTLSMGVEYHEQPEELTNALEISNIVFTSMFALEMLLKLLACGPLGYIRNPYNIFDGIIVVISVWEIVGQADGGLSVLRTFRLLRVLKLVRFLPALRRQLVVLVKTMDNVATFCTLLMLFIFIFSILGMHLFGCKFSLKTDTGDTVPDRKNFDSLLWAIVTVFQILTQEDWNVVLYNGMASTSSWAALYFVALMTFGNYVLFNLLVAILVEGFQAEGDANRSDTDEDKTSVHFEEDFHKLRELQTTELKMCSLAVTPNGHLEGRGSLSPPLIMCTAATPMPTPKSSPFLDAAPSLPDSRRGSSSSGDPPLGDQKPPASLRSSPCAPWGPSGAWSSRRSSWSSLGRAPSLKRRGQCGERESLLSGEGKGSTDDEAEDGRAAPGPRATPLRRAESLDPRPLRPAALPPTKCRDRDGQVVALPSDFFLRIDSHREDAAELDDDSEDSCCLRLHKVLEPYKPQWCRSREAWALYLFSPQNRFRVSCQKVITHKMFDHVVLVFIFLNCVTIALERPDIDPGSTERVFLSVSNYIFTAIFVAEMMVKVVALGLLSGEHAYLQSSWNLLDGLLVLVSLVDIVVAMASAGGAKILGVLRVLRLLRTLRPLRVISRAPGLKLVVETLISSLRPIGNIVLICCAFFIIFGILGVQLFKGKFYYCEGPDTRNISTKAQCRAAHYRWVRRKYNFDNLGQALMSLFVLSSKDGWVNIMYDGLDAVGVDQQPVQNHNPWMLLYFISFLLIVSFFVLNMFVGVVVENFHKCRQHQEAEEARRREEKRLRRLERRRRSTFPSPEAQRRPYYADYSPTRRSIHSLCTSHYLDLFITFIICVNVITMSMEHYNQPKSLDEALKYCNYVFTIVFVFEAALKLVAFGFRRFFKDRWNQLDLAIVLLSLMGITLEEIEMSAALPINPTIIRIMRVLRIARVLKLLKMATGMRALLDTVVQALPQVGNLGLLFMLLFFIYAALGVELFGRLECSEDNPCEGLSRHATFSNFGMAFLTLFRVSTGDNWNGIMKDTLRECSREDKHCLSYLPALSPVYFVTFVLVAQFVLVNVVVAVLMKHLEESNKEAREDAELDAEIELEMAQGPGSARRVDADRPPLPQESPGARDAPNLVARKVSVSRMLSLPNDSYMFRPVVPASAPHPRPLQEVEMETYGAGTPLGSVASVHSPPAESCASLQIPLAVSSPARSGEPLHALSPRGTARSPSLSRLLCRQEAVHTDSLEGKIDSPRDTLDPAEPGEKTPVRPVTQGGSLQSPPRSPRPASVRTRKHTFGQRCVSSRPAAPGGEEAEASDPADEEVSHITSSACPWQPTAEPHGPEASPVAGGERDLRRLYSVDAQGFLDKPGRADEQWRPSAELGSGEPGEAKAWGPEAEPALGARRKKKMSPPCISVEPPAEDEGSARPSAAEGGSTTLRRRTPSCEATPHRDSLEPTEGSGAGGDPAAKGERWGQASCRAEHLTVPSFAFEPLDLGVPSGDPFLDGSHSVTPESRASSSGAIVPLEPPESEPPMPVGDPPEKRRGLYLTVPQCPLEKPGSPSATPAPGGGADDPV
MEASUREMENT_NOTES: T-type calcium channel block, whole cell patch clamp, α1H
TEST_PARAMETERS: HEK cells stably expressing human α1H; mainly non-inactivated protocol; values above 10,000 nM represented as 10000
pIC50 reference
Answer as the number alone; pIC50 is minus log10 of concentration in mol/L.

molecule=O=C(CN[C@H]1CC[C@@H](S(=O)(=O)c2cccc(C(F)(F)F)c2)CC1)NC1CCCCC1 tested_target="human α1H T-type channels (Homo sapiens, UniProt O95180)" observed_result=6.32
molecule=CC(C)S(=O)(=O)c1cc(C(F)(F)F)cnc1C(=O)NC[C@H]1C[C@H](S(=O)(=O)c2cccc(C(F)(F)F)c2)C1 tested_target="human α1H T-type channels (Homo sapiens, UniProt O95180)" observed_result=5.68
molecule="CC(C)(C)NC(=O)CNC1CCC(S(=O)(=O)c2cccc(C(F)(F)F)c2)CC1 (centres unmarked)" tested_target="human α1H T-type channels (Homo sapiens, UniProt O95180)" observed_result=5.04
molecule="CC1(NC(=O)c2cc(C(F)(F)F)ccn2)CCC(S(=O)(=O)c2cccc(C(F)(F)F)c2)CC1 (centres unmarked)" tested_target="human α1H T-type channels (Homo sapiens, UniProt O95180)" observed_result=5.64
molecule=CC(C)(CNS(=O)(=O)c1ccc(OC(F)(F)F)cc1)S(=O)(=O)c1cccc(C(F)(F)F)c1 tested_target="human α1H T-type channels (Homo sapiens, UniProt O95180)" observed_result=6.46

Query :: Query pIC50 on human α1H T-type channels (Homo sapiens, UniProt O95180) for O=C(N[C@H]1CC[C@@](F)(S(=O)(=O)c2cc(F)cc(C(F)(F)F)c2)CC1)c1cn2cc(C(F)(F)F)ccc2n1
Result :: 6.11

Query :: Now the same for O=C(CN[C@H]1CC[C@@H](S(=O)(=O)c2cccc(C(F)(F)F)c2)CC1)Nc1ccccn1
Result :: 5.82

Query :: Same question for CCN(CC)C(=O)CN[C@H]1CC[C@H](CS(=O)(=O)c2cccc(C(F)(F)F)c2)CC1 please.
Result :: 5.37

* * *

Attribute: IC50
TESTED_TARGET: T-type calcium channel (Homo sapiens)
Sequence (O43497 whole entry): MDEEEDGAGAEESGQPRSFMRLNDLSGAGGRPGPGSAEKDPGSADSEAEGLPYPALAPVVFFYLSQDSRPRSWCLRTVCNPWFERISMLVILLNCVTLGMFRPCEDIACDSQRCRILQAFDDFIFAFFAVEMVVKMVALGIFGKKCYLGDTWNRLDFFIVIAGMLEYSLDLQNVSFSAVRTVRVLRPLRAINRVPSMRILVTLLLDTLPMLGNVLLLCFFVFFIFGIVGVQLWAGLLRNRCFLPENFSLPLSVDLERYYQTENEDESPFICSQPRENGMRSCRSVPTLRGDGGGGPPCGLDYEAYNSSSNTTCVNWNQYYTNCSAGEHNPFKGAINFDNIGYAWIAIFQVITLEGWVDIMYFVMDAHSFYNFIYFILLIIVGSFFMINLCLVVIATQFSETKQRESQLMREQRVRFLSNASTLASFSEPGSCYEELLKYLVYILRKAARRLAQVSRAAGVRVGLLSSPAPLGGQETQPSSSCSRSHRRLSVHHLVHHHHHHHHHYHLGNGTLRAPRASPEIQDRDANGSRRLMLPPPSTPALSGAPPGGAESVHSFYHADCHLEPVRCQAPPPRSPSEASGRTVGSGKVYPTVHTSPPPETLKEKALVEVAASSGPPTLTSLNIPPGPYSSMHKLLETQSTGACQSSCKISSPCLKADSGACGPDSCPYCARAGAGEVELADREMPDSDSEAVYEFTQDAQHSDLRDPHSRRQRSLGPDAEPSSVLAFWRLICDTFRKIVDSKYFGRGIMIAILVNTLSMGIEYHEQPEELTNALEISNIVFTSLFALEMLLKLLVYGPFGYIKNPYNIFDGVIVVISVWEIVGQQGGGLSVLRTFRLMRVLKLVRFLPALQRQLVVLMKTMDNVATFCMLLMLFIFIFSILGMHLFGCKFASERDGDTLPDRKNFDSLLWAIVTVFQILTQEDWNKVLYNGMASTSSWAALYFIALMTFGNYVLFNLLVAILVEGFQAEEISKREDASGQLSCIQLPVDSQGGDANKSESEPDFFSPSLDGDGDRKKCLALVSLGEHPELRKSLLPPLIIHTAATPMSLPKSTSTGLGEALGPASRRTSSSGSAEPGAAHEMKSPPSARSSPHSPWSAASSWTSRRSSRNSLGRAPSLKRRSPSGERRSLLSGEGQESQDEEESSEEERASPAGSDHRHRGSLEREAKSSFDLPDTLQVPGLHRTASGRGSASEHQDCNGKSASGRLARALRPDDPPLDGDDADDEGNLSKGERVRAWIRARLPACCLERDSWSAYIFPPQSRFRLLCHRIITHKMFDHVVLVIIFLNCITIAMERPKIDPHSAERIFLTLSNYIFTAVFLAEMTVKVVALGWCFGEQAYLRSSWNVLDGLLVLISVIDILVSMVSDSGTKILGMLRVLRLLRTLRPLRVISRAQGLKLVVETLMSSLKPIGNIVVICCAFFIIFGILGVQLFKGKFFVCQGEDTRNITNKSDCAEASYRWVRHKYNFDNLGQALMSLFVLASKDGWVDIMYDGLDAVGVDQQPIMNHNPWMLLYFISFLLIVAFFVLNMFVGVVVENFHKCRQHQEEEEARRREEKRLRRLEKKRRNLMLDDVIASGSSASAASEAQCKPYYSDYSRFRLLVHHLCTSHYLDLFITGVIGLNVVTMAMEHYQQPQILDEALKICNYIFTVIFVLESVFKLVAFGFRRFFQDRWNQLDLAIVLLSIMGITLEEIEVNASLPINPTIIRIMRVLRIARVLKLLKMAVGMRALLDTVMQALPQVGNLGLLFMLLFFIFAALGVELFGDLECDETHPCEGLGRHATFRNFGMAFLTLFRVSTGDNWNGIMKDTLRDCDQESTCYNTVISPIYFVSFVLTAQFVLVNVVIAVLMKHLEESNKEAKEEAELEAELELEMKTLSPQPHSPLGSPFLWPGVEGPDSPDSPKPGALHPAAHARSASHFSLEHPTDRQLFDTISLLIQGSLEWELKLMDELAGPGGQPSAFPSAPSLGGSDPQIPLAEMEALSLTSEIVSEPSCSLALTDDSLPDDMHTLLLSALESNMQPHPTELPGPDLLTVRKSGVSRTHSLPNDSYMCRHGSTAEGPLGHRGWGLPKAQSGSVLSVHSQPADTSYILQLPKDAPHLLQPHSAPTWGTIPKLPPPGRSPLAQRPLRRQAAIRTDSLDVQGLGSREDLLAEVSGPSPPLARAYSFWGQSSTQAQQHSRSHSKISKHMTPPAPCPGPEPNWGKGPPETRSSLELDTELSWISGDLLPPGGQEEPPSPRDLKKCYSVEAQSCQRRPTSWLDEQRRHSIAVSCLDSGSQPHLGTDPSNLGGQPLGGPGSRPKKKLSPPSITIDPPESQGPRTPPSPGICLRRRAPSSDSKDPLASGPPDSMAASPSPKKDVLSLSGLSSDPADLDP
MEASUREMENT_NOTES: T-type channel blocking, FLIPR data (Table 6)
TEST_PARAMETERS: CAv3.1
The reply should contain only the number, in µM.

Some solved cases for reference:
given_smiles=CC(C)([C@H]1C[C@@H](NC(=O)c2ccc(Cl)c(F)c2)C1)S(=O)(=O)c1cc(F)cc(C(F)(F)F)c1 tested_target="T-type calcium channel (Homo sapiens)" result_units=µM observed_result=4.03
given_smiles=CC(C)([C@H]1C[C@H](NS(=O)(=O)c2ccc(F)c(Cl)c2)C1)S(=O)(=O)c1cccc(C(F)(F)F)c1 tested_target="T-type calcium channel (Homo sapiens)" result_units=µM observed_result=2.93
given_smiles=CC(C)([C@H]1C[C@H](NC(=O)c2cc(C(F)(F)F)n[nH]2)C1)S(=O)(=O)c1cccc(OC(F)(F)F)c1 tested_target="T-type calcium channel (Homo sapiens)" result_units=µM observed_result=9.41

Shift focus to the following entry.
Query :: What value of IC50 has been recorded for this entry: CC(C)([C@H]1C[C@@H](NC(=O)c2ccc(C(F)(F)F)cc2S(C)(=O)=O)C1)S(=O)(=O)c1cccc(OC(F)(F)F)c1
Result :: 4.17
